- System: 628569-122-R-J1-PDC complex spheroid viability;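 also: spheroids exposed to agents for seven days before readout; 100% = DMSO vehicle control viability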
- Experiment Notes: Anticancer human tumor 628569-122-R-J1-PDC patient-derived head and neck squamous carcinoma cell line growth inhibition [CLK]
- Study Conditions: second compound 0.0316 µM; first compound 0.01 µM; hits give low values
Would you kindly list viability, T/C for each of these molecules?
Could you give me the number in %? Just the number is fine.

For Cn1ncnc1[C@H]1c2n[nH]c(=O)c3cc(F)cc(c23)N[C@@H]1c1ccc(F)cc1 + CN1CCN(c2cc(C(=O)Nc3cc4cc(-c5cnn(C)c5)ccc4cn3)ccn2)CC1 on 628569-122-R-J1-PDC complex spheroid viability, measured viability, T/C was 92.5

For CCc1c2c(nc3ccc(O)cc13)-c1cc3c(c(=O)n1C2)COC(=O)[C@]3(O)CC + CN1CCN(c2cc(C(=O)Nc3cc4cc(-c5cnn(C)c5)ccc4cn3)ccn2)CC1 on 628569-122-R-J1-PDC complex spheroid viability, measured viability, T/C was 53.1

For Cn1ncnc1[C@H]1c2n[nH]c(=O)c3cc(F)cc(c23)N[C@@H]1c1ccc(F)cc1 + CNC(=O)c1ccc(Nc2nc(OC3CCCC3)c3c(-c4ccc5nc(C)oc5c4)c[nH]c3n2)c(OC)c1 on 628569-122-R-J1-PDC complex spheroid viability, measured viability, T/C was 71.3

For COc1c(OCCCN2CCOCC2)ccc2c3n(c(=NC(=O)c4cnc(N)nc4)nc12)CCN3 + CNC(=O)c1ccc(Nc2nc(OC3CCCC3)c3c(-c4ccc5nc(C)oc5c4)c[nH]c3n2)c(OC)c1 on 628569-122-R-J1-PDC complex spheroid viability, measured viability, T/C was 66.5

For COc1c(OCCCN2CCOCC2)ccc2c3n(c(=NC(=O)c4cnc(N)nc4)nc12)CCN3 + CN1CCN(c2cc(C(=O)Nc3cc4cc(-c5cnn(C)c5)ccc4cn3)ccn2)CC1 on 628569-122-R-J1-PDC complex spheroid viability, measured viability, T/C was 67.5
